Entry source: PubChem BioAssay AID1671268

Tested System: Receptor-type tyrosine-protein kinase FLT3 (Homo sapiens) (UniProt P36888)
Sequence (P36888 whole entry, looked up): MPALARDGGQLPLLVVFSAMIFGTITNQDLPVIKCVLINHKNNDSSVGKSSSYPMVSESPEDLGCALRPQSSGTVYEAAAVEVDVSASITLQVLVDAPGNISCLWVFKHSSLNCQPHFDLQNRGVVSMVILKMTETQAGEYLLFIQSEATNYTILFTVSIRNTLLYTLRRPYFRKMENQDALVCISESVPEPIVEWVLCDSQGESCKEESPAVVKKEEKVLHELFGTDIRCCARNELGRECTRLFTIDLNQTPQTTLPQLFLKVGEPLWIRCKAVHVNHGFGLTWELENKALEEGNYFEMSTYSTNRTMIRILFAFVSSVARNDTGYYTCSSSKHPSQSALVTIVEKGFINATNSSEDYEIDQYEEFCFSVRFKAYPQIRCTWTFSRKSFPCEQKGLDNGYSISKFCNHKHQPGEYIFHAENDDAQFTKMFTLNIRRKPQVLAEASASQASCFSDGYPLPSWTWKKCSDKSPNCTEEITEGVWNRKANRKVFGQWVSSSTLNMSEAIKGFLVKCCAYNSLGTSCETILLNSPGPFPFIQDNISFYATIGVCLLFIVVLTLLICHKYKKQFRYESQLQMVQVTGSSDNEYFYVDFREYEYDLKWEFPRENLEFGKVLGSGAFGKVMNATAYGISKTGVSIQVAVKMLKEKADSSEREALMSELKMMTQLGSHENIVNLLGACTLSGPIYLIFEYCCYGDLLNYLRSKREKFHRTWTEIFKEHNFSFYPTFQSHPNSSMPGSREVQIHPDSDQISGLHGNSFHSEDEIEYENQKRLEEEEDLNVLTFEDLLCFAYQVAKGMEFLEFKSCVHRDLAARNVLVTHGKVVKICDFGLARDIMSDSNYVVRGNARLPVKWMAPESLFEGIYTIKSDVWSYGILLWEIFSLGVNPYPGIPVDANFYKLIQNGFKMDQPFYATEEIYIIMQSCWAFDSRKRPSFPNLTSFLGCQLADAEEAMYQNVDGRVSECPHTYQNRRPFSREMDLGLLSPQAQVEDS
Method Summary: inhibition of human FLT3 receptor tyrosine kinase – biochemical, Z'-LYTE, FRET, protease-coupled, direct format, dose response (AID 1671268)
Condition Notes: recombinant FLT3, Z'-LYTE FRET peptide phosphorylation
pIC50: −log10 of the molar value.
Property Name: pIC50

[[record]]
compound_structure = "COc1cc2ncnc(Nc3cccc(Cl)c3)c2cc1OC"
reading = 5.53

